protocol_summary: Solubility study: maximum solubility of terpenes in solvent by stepwise addition and visual inspection
Format: physicochemical
experimental_conditions: solvent propylene glycol (PG); ambient temperature (18 to 22 degrees Celsius)
Kindly state Max. solubility of terpenes in solvent (% w/w) PG for each of the entries shown.
Give bare numbers, in % w/w.

As a guide, the following entries are already answered.
> print(dat)
                                   compound  assay.value
1  C=CC(C)(CCC=C(C)C)OC(C)=O (stereo not shown) [Linalyl acetate]          1.4
2       CC(C)=CCCC(C)CCO (stereo not shown)         47.0
3     C=C1CC/C=C(\C)CC[C@@H]2[C@@H]1CC2(C)C          1.1

-- ask Item under review: C=C[C@](C)(O)CCC=C(C)C . Reported Max. solubility of terpenes in solvent (% w/w) PG?
-- reply 72.6

----------
Kindly state Max. solubility of terpenes in solvent (% w/w) BA for each of the entries shown.
protocol_summary: Solubility study: maximum solubility of terpenes in solvent by stepwise addition and visual inspection
Assay type: physicochemical
experimental_conditions: solvent benzyl alcohol (BA); ambient temperature (18 to 22 degrees Celsius)
Answers are plain numbers, in % w/w.

As a guide, the following entries are already answered.
> print(dat)
                                   compound  assay.value
1       CC(C)=CCCC(C)CCO (stereo not shown)         71.2
2  C=CC(C)(CCC=C(C)C)OC(C)=O (stereo not shown) [Linalyl acetate]         34.5
3                    C=C[C@](C)(O)CCC=C(C)C         73.2

-- ask Item under review: C=C1CC/C=C(\C)CC[C@@H]2[C@@H]1CC2(C)C . Reported Max. solubility of terpenes in solvent (% w/w) BA?
-- reply 11.0
